Data origin: PubChem BioAssay AID2060486

System: IGROV1 complex spheroids (HUVEC, MSC), viability % test/control
test_method_notes: Anticancer human tumor IGROV1 cell line growth inhibition [GQUAD];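 note: spheroids exposed to compounds for 7 days before readout; 100% = DMSO vehicle control viability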
study_conditions: second compound 1 µM; first compound 0.1 µM; hits give low values
parameter: viability, T/C (%)
Give bare numbers, in %.

Please review the entries below; each comes with its answer.
{"columns": ["compound", "parameter", "reported_measurement"],
 "data": [
  ["Nc1ccn(C2OC(CO)C(O)C2(F)F)c(=O)n1 (stereo not drawn) + Cc1cnc(CNC(=O)c2c(=O)c3ccc(N4CCCN(C)CC4)nc3n3c2sc2ccccc23)cn1", "viability, T/C", 7],
  ["O=c1[nH]cc(F)c(=O)[nH]1 + CN(C)c1ccc(Nc2c3ccc(NC(=O)CCN4CCCC4)cc3nc3cc(NC(=O)CCN4CCCC4)ccc23)cc1", "viability, T/C", 72],
  ["Cc1cccc(N(C)C(=O)C2C(O)CCN2c2nc(C)cc(C(F)(F)F)c2C#N)c1 (stereo not drawn) + Cc1[nH]c2ccc(F)cc2c1-c1nc2c3cccnc3c3ncccc3c2[nH]1", "viability, T/C", 6.22]
]}

Look up viability, T/C for the entries below, preserving their order.
1. CC1COCCN1c1cc(-c2ccnn2C)c2ccnc(-c3ccn[nH]3)c2n1 (stereo not drawn) + CN(C)c1ccc(Nc2c3ccc(NC(=O)CCN4CCCC4)cc3nc3cc(NC(=O)CCN4CCCC4)ccc23)cc1
2. CCCS(=O)(=O)Nc1ccc(F)c(C(=O)c2c[nH]c3ncc(-c4ccc(Cl)cc4)cc23)c1F + Cc1cnc(CNC(=O)c2c(=O)c3ccc(N4CCCN(C)CC4)nc3n3c2sc2ccccc23)cn1
3. CC(C)(O)C1CCC(Nc2ccc3ncc(-c4cccc(C(F)(F)F)c4)n3n2)CC1 (stereo not drawn) + CN(C)c1ccc(Nc2c3ccc(NC(=O)CCN4CCCC4)cc3nc3cc(NC(=O)CCN4CCCC4)ccc23)cc1
4. O=c1[nH]cc(F)c(=O)[nH]1 + Cc1cnc(CNC(=O)c2c(=O)c3ccc(N4CCCN(C)CC4)nc3n3c2sc2ccccc23)cn1
5. O=C(c1cc(Cc2n[nH]c(=O)c3ccccc23)ccc1F)N1CCN(C(=O)C2CC2)CC1 + CN(C)c1ccc(Nc2c3ccc(NC(=O)CCN4CCCC4)cc3nc3cc(NC(=O)CCN4CCCC4)ccc23)cc1
6. Nc1ccn(C2OC(CO)C(O)C2(F)F)c(=O)n1 (stereo not drawn) + Cc1[nH]c2ccc(F)cc2c1-c1nc2c3cccnc3c3ncccc3c2[nH]1

OUTPUT:
1. 28.5
2. 17.2
3. 92.6
4. 15.3
5. 90.4
6. 5

Each compound below has a reported value. Please supply its viability, T/C.
1. COc1ccc([C@@H](O)c2cc(-c3ncnc4cc(N5CCOCC5)ccc34)c(F)cc2Cl)nn1 + Cc1cnc(CNC(=O)c2c(=O)c3ccc(N4CCCN(C)CC4)nc3n3c2sc2ccccc23)cn1
2. CC1COCCN1c1cc(C2(S(C)(=N)=O)CC2)nc(-c2ccnc3[nH]ccc23)n1 (stereo not drawn) + Cc1cnc(CNC(=O)c2c(=O)c3ccc(N4CCCN(C)CC4)nc3n3c2sc2ccccc23)cn1
3. C=CCn1c(=O)c2cnc(Nc3ccc(N4CCN(C)CC4)cc3)nc2n1-c1cccc(C(C)(C)O)n1 + CN(C)c1ccc(Nc2c3ccc(NC(=O)CCN4CCCC4)cc3nc3cc(NC(=O)CCN4CCCC4)ccc23)cc1
4. Cc1cccc(N(C)C(=O)C2C(O)CCN2c2nc(C)cc(C(F)(F)F)c2C#N)c1 (stereo not drawn) + Cc1cnc(CNC(=O)c2c(=O)c3ccc(N4CCCN(C)CC4)nc3n3c2sc2ccccc23)cn1
5. O=C(NO)c1cnc(N2CCN(S(=O)(=O)c3ccc4ccccc4c3)CC2)nc1 + CN(C)c1ccc(Nc2c3ccc(NC(=O)CCN4CCCC4)cc3nc3cc(NC(=O)CCN4CCCC4)ccc23)cc1

OUTPUT:
1. 17.8
2. 17.7
3. 69.2
4. 9.76
5. 23.6
